The origin of these recorded values is ChEMBL document CHEMBL3792273.

System: Leishmania amazonensis
Assay: Antileishmanial activity against Leishmania amazonensis infected in mouse peritoneal macrophages after 72 hrs using 2 hrs parasite exposed mouse peritoneal macrophages
pIC50: −log10 of the molar value.

# COMPOUND, pIC50
records = [
    ("CC[C@@H]([C@H](C)O)n1ncn(-c2ccc(N3CCN(c4ccc(OC[C@@H]5CO[C@@](Cn6cncn6)(c6ccc(F)cc6F)C5)cc4)CC3)cc2)c1=O [POSACONAZOLE]", 5.80),
]

====

Assay: Selectivity index, ratio of IC50 for cytotoxic activity against mouse J774 cells to IC50 for antileishmanial activity against Leishmania donovani
Assay type: toxicity, cell-based
Conditions: read-out: Ratio IC50
Here the recorded selectivity ratio is given for each entry.

# SMILES ENTRY, selectivity ratio
records = [
    ("CC(C)Oc1cc(NC(=N)c2ccccn2)ccc1-c1ccc(-c2ccccc2)o1.CS(=O)(=O)O", "≥ 25"),
    ("CC(C)Oc1cc(NC(=N)c2ncccn2)ccc1-c1ccc(-c2ccccc2)o1", 27),
    ("CS(=O)(=O)O.N=C(Nc1ccc(-c2ccc(-c3ccccc3)o2)c(OC2CCCC2)c1)c1ccccn1", "≥ 25"),
    ("COc1ccc(-n2cc(-c3ccc(NC(=N)c4ccccn4)cc3OC(C)C)nn2)cc1", 10),
    ("CC(C)Oc1cc(NC(=N)c2ccccn2)ccc1-c1ccc(-c2ccccc2)s1", 3.1),
    ("CC(C)Oc1cc(NC(=N)c2ccccn2)ccc1-c1cnc(-c2ccccc2)o1", 24),
    ("CC(C)Oc1cc(NC(=N)c2ccccn2)ccc1-c1ccc(-c2ccco2)o1.Cl", "≥ 25"),
]
